# credit: patent US10259810B2

# TEST_TARGET: ΔF508-CFTR (Homo sapiens, UniProt P13569, DEL508-508)
# Construct: host or cells: CFBE41o-, doxycycline-inducible
# Sequence (P13569 with tags, fused parts or gaps DEL508-508): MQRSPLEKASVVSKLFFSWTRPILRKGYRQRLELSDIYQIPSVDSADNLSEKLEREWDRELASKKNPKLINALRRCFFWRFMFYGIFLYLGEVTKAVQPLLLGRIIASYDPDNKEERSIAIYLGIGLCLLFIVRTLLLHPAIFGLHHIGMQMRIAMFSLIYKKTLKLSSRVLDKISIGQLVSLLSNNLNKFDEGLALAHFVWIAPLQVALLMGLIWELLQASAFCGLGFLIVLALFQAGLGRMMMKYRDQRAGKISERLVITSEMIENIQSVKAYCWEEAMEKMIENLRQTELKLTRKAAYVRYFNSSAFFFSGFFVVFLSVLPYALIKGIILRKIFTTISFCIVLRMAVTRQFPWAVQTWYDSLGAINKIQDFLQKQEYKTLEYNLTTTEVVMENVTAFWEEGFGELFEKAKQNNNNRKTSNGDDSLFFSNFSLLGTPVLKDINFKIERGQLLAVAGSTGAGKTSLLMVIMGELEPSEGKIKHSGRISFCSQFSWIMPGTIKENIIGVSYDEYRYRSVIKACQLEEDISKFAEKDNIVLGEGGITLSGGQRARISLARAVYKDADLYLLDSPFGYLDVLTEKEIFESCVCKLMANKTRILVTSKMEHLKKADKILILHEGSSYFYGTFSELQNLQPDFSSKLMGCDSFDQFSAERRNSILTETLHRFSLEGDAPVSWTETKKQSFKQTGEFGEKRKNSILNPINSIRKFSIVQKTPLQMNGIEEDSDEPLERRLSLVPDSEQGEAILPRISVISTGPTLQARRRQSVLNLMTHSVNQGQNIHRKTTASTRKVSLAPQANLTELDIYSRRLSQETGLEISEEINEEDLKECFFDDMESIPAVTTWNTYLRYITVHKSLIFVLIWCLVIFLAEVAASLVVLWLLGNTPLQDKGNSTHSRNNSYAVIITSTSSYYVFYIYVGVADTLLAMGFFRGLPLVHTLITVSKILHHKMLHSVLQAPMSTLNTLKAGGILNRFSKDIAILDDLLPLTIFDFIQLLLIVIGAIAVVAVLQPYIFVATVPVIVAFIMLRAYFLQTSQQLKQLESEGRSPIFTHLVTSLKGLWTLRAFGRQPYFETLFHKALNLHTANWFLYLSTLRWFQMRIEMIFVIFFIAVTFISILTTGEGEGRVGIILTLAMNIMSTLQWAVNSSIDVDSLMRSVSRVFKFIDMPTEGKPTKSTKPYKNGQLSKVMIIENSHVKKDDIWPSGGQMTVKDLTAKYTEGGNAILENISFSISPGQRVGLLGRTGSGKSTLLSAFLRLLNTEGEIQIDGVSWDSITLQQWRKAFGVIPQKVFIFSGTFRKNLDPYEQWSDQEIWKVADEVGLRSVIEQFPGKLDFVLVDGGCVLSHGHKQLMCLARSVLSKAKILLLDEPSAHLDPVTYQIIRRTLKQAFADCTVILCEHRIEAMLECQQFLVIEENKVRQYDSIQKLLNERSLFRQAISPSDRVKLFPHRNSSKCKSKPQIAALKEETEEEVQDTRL
# PROCEDURE_DETAILS: CFTR cell surface levels using HRP-tagged ΔF508-CFTR expressing CFBE cells, intrinsic corrector capacity
# Type: cell-based
# CONDITION_LABEL: HRP-tagged ΔF508-CFTR expressing CFBE41o- cells; compound alone (intrinsic corrector capacity); 20 hours at 33° C.; read-out: EC50
READOUT_KIND: EC50 (nM)
Enter your answer as a number in nM; do not include the unit.

The following molecules have reported results that may help.
COCC1(F)CCN(c2cc(C(=O)NS(C)(=O)=O)nc3c2c(C2CCC2)nn3-c2ccccc2)CC1 : 301
COC1CCN(C2CCN(c3cc(C(=O)NS(=O)(=O)N(C)C)nc4c3c(C3CCC3)nn4-c3ccc(F)cc3)CC2)C1 (stereo not shown) : 525
CN(C)S(=O)(=O)NC(=O)c1cc(N2CCC3C(CCN3C3CCOCC3)C2)c2c(C3CCC3)nn(-c3ccc(F)cc3)c2n1 (stereo not shown) : 425
CC(C)c1nn(-c2cccc(N3CCC3)c2)c2nc(C(=O)NS(C)(=O)=O)cc(-c3ccc(N4CCOCC4)cc3)c12 : 572
COCCN(C)c1ccc(-c2cc(C(=O)NS(C)(=O)=O)nc3c2c(C(C)C)nn3-c2cccc(N3CCCC3)c2)cc1 : 613
CNS(=O)(=O)NC(=O)c1cc(N2CCC(N3CCOCC3)CC2)c2c(C3CCC3)nn(-c3ccc(F)cc3)c2n1 : 184

Attention now turns to another entry.
# query: EC50 of entry "COCC1CCN(c2cc(C(=O)NS(=O)(=O)N(C)C)nc3c2c(C2CCC2)nn3-c2ccccc2)CC1" 312
